assay: Pharmacokinetic (PK) study after IP injection; conditions: C57BL/6, mouse, in vivo, I.P., 5 mg/kg
MEASURE: Cmax (ng/mL)
One number for each entry, in ng/mL.

// lookup Cmax for COc1ccc2c(c1O)OC(C)(C)C=C2c1cccc2c1oc1ccccc12
1200

###

system: BV-2 cells; test: Cell viability assay (EZ-Cytox); conditions: 10 μM
MEASURE: % Viab. at 10 μM
Write the numeric value and follow it with the unit.

[
  {
    "MOLECULE": "COc1ccc2c(c1O)OC(C)(C)C=C2c1ccccc1C",
    "% Viab. at 10 μM": "106.1%"
  },
  {
    "MOLECULE": "COc1ccc2c(c1O)OC(C)(C)C=C2c1cccc2c1Sc1ccccc1S2",
    "% Viab. at 10 μM": "102.1%"
  },
  {
    "MOLECULE": "COc1ccc2c(c1O)OC(C)(C)C=C2c1cc(C)ccc1C",
    "% Viab. at 10 μM": "99.7%"
  },
  {
    "MOLECULE": "CCOC(=O)CCC1(C)C=C(c2ccc(Cl)cc2C)c2ccc(OC)c(O)c2O1 (centres unmarked)",
    "% Viab. at 10 μM": "105.6%"
  },
  {
    "MOLECULE": "COc1ccc2c(c1O)OC(C)(C)C=C2c1cccc(-c2ccccc2)c1",
    "% Viab. at 10 μM": "106.1%"
  },
  {
    "MOLECULE": "COc1ccc2c(c1O)OC(C)(C)C=C2c1ccc(F)cc1C",
    "% Viab. at 10 μM": "105.3%"
  }
]

Go through the items and report each one's % Viab. at 10 μM.
1. CCOC(=O)CCC1(C)C=C(c2cccc3c2oc2ccccc23)c2ccc(OC)c(O)c2O1 (centres unmarked)
2. COc1ccccc1C1=CC(C)(C)Oc2c1ccc(OC)c2O
3. COc1ccc2c(c1O)OC(C)(C)C=C2c1cccc2c1sc1ccccc12
4. COc1ccc2c(c1O)OC(C)(C)C=C2c1cccc2cccnc12
5. COc1ccc2c(c1O)OC(C)(C)C=C2c1ccc(F)cc1

1: 111.4%; 2: 113.8%; 3: 103.6%; 4: 101.5%; 5: 88.0%
